- Subject of test: Sphingosine 1-phosphate receptor 1 (Homo sapiens, UniProt P21453)
- Sequence (P21453 whole entry): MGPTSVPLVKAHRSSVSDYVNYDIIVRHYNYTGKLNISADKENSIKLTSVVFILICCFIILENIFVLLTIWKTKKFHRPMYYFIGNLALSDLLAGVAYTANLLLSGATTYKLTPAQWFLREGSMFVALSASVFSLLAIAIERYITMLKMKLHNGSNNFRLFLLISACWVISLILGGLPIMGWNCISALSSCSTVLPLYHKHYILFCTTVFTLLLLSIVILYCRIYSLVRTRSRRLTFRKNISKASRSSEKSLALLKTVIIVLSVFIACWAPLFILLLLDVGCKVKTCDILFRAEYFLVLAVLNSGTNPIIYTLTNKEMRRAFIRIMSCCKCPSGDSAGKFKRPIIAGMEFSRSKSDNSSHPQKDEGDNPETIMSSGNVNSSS
- Procedure text: direct activation of human S1P1 – cell-based, agonist mode, 60K MLSMR set, dose response (AID 468)
Entries and their measured EC50 follow.

- Compound: "CCOc1ccc(-c2nnc(-c3ccco3)o2)cc1OCC"
  Result: "1.18 µM"

Lab note: measured EC50 of `Cc1ccc(NC(=O)c2cc(-c3ccco3)on2)cc1C` was 4.99 µM

The compound `CCC(NC(=O)Nc1nnc(C(F)(F)F)s1)(C(F)(F)F)C(F)(F)F` showed EC50 equal to > 95 µM

# compound `Cc1cc(C(=O)CSc2nnc(-c3ccncc3)n2-c2ccccc2)c(C)n1C` ; its EC50 = 2.46 µM

The value of EC50 measured for the compound `COC(=O)c1c(C)n(-c2ccc(OC)cc2)c2ccc(O)cc12` turned out to be 6.29 µM

Lookup result for `Cc1nc2sccn2c1-c1csc(NCc2ccccc2)n1` ; measured EC50: 2.77 µM

Consider O=C(Nc1nc2c(s1)CCCC2)c1cc2n(n1)C(C(F)(F)F)CC(C1CC1)N2 (stereo unspecified) . Its measured EC50 is 0.996 µM

`Cc1ccc(OCCn2cc(C(=N)NO)c3ccccc32)cc1C` yielded EC50 of 9.82 µM
